Reference source: paper PMC9482650

Reported pKd values for a set of binders
Biological target: PTPN3, P26045
Sequence (P26045 505-587): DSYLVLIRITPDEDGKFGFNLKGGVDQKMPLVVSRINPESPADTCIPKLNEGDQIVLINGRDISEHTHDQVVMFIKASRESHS
Test: holdup assay
Parameters: key: below the threshold = too weak to quantify, mostly under pKd 3.1 to 4
Settings: plain residues with an end cap or a label only (N-terminal biotin on a linker: ado-ado)
# print the numeric value only

Entry SSSVNVSSNL [CXCR1, P25024] ; pKd = 4.48

Memo: RDYTQSSSSL [GRM5, P41594] , reported pKd: 4.27

Value of pKd reported for the binder NISARRFTLC [FAM167B, Q9BTA0] is 3.61

Entry SRPHTNETSL [MCC, P23508] , pKd reported as 4.9

Looking up RGKNRRQSIF [CDK18, Q07002] , I found its pKd recorded as 3.77

pKd reported for this binder MQILSKPEFI [NPSR1, Q6W5P4] : 3.94
